Target: serotonin transporter (SERT) (Homo sapiens)
Construct: expressed in transfected cells; host or cells: CHO cells
Sequence (P31645 whole entry): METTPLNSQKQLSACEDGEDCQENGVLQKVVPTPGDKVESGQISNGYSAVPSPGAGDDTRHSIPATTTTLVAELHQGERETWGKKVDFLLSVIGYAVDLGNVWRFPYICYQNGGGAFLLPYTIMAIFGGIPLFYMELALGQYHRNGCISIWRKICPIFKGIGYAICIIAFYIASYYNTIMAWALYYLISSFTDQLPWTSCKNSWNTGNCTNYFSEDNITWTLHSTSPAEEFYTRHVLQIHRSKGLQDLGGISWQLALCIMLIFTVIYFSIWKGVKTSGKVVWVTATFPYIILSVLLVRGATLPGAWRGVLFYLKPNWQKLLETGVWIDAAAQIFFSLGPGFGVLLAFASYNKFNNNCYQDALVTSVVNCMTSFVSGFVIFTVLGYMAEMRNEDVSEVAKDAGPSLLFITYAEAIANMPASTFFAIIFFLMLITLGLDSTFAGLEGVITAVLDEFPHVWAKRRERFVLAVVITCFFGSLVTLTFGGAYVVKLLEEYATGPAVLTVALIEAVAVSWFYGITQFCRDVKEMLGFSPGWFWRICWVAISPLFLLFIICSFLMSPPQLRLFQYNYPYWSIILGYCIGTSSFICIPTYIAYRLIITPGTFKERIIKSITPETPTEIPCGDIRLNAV
Test: Radioligand binding assay, serotonin transporter (SERT)
Settings: binding assay, test compound 1×10^−6 M
Listed here: items and their measured inhibition at 1 µM.
Endpoint: inhibition at 1 µM (%)

>>> df
                                    compound  endpoint_result
 0  O=S(=O)(NC1CCN(CCCc2noc3cc(F)ccc23)C1)c1ccc(-c2ccccc2)cc1 (centres unmarked)                7
 1  Cn1ccc2cc(S(=O)(=O)NCC3CN(CCCc4noc5cc(F)ccc45)C3)ccc21               12
 2  O=S(=O)(N[C@H]1CCN(CCCc2noc3cc(F)ccc23)C1)c1ccc2cc(Cl)ccc2c1               59
 3  CC(C)(C)c1ccc(S(=O)(=O)NC2CCN(CCCc3noc4cc(F)ccc34)C2)cc1 (centres unmarked)               -3
 4  O=S(=O)(NCC1CCN(CCCc2noc3cc(F)ccc23)C1)c1cc2ccccc2o1 (centres unmarked)               20
 5  Cn1ccc2cc(S(=O)(=O)NCC3CN(CCOc4cccc5ccccc45)C3)ccc21               75
 6  O=S(=O)(NCC1CCN(CCOc2cccc3c2OCCO3)C1)c1ccc2c(c1)CCO2 (centres unmarked)               90
 7  Cc1c(S(=O)(=O)NCC2CN(CCOc3cccc4ccccc34)C2)sc2ccc(F)cc12               32
 8  COc1ccc2cc(S(=O)(=O)N[C@H]3CCN(CCCc4noc5cc(F)ccc45)C3)ccc2c1               63
 9  Cc1c(S(=O)(=O)N[C@H]2CCN(CCCc3noc4cc(F)ccc34)C2)sc2ccc(F)cc12               73
10  Cc1ccc(S(=O)(=O)NCC2CCN(CCOc3cccc4c3OCCO4)C2)cc1 (centres unmarked)               66
11  O=S(=O)(NCC1CCN(CCOc2cccc3c2OCCO3)C1)c1ccc(F)cc1 (centres unmarked)               64
12  O=S(=O)(NC1CCN(CCCc2noc3cc(F)ccc23)C1)c1cccc2ccccc12 (centres unmarked)                6
13  O=S(=O)(NC1CCN(CCOc2cccc3ccccc23)C1)c1ccc2ccccc2c1 (centres unmarked)               95
14  O=S(=O)(NC1CCN(CCCc2noc3cc(F)ccc23)C1)c1cccc(O)c1 (centres unmarked)               37
15  COc1ccc(S(=O)(=O)NC2CCN(CCCc3noc4cc(F)ccc34)C2)cc1 (centres unmarked)               12
16  O=S(=O)(NC1CCN(CCCc2noc3cc(F)ccc23)C1)c1ccc(F)cc1 (centres unmarked)              -13

###

Molecular target: 5-HT7 receptor (Homo sapiens)
Construct: purchased PerkinElmer
Sequence (P34969 whole entry): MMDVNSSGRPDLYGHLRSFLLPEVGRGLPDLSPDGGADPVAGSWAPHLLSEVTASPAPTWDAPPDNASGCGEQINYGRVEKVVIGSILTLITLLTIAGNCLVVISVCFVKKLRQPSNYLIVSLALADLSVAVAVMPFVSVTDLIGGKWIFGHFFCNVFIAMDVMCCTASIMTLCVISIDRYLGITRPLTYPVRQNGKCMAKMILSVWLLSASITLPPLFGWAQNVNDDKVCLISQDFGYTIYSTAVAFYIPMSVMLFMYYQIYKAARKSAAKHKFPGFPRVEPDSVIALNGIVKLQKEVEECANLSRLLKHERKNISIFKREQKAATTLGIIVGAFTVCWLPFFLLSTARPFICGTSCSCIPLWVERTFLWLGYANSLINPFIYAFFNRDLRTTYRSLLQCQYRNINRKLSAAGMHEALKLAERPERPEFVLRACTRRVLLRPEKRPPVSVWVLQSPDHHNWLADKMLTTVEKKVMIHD
Assay: Radioligand binding assay, serotoninergic 5-HT7 receptors;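 note: test compound at 1 µM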
Conditions: binding assay result in %, Table 5a
Source text: The specific ligand binding to the receptors is defined as the difference between the total binding and the non-specific binding determined in the presence of the excess of unlabelled ligand. The results are expressed as a percent of control specific binding ((measured specific binding/control specific binding)×100) and as a percent inhibition of control specific binding (100−((measured specific binding/control specific binding)×100)) obtained in the presence of the test compounds. […]
Listed here: items and their measured inhibition at 1 µM.
Endpoint: inhibition at 1 µM (%)

>>> print(df.to_string())
                                   molecule  endpoint_result
0  N#Cc1ccc(S(=O)(=O)NC2CCN(CCCc3noc4cc(F)ccc34)C2)cc1 (stereo not shown)               80
1  O=S(=O)(N[C@H]1CCN(CCCc2noc3cc(F)ccc23)C1)c1ccc2cc(Cl)ccc2c1               95
2  O=S(=O)(NC1CCN(CCCc2noc3cc(F)ccc23)C1)c1ccc2c(c1)OCO2 (stereo not shown)               82
3  O=S(=O)(NC1CCN(CCCc2noc3cc(F)ccc23)C1)c1ccc(Br)cc1 (stereo not shown)               86
